Test system: YAP-dependent transcription in SF268-MCAT_Luc_dox-i-shYAPLevy (Clone 13) cells
Assay method text: YAP reporter gene activity assay (MCAT-Luc), SF268
Type: cell-based
Experimental conditions: SF268 MCAT_Luc, 24 hrs
pIC50: −log10 of the molar value.
Result type: pIC50

In [3]: df
Out[3]:
                                chem_smiles  result_type  recorded_number
0  COc1ccc(C(N)=O)c(-c2c(Cl)c(F)cc3c2[C@H](C)[C@@](CN[C@H]2CC[C@H](C(=O)OC)CC2)(c2ccccc2)O3)c1F        pIC50             7.48

* * *

The reader will find reported pIC50 values listed item by item below.
Experimental system: Avi-humanTEAD4^217-434 / Cy5 labeled humanYAP^60-100 (Homo sapiens (Human), UniProt Q15561)
Sequence (Q15561 217-434): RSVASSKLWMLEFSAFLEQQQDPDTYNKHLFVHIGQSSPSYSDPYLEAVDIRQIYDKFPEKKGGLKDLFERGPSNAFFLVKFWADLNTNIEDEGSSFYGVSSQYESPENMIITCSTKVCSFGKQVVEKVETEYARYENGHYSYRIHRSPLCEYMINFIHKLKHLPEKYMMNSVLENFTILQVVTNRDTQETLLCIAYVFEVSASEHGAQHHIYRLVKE
Assay method text: In-vitro biochemical TR-FRET assay (TEAD4/YAP)
Experimental conditions: 1 h at room temperature
pIC50: −log10 of the molar value.

Compound	Inequality sign	pIC50
COc1ccc(C(N)=O)c(-c2c(Cl)c(F)cc3c2[C@H](C)[C@@](CN[C@H]2CC[C@H](C(=O)NCCCCCc4cccc5c4CN(C4CCC(=O)NC4=O)C5=O)CC2)(c2ccccc2)O3)c1F (some centres unmarked) [Example 31]	=	8.74
COc1ccc(C(N)=O)c(-c2c(Cl)c(F)cc3c2[C@H](C)[C@@](CN[C@H]2CC[C@H](C(=O)N4CCC(OC5CCN(C(=O)COc6ccc(N7CCC(=O)NC7=O)c(C)c6)CC5)CC4)CC2)(c2ccccc2)O3)c1F (atropisomer, axis not shown) [Example 14]	=	8.85
COc1ccc(C(=O)N2CCN(CC3CN(C(=O)[C@H]4CC[C@H](NC[C@]5(c6ccccc6)Oc6cc(F)c(Cl)c(-c7c(C(N)=O)ccc(OC)c7F)c6[C@@H]5C)CC4)C3)CC2)cc1N1CCC(=O)NC1=O (atropisomer, axis not shown) [Example 9]	=	8.92
COc1ccc(C(=O)N2CCC(OC3CN(C(=O)[C@H]4CC[C@H](NC[C@]5(c6ccccc6)Oc6cc(F)c(Cl)c(-c7c(C(N)=O)ccc(OC)c7F)c6[C@@H]5C)CC4)C3)CC2)cc1N1CCC(=O)NC1=O (atropisomer, axis not shown) [Example 8]	=	8.80
COc1ccc(C(N)=O)c(-c2c(Cl)c(F)cc3c2[C@H](C)[C@@](CN[C@H]2CC[C@H](C(=O)N4CCC(CC5CCN(CCn6cccc(CN7CCC(=O)NC7=O)c6=O)CC5)CC4)CC2)(c2ccccc2)O3)c1F (atropisomer, axis not shown) [Example 15]	>	9.00
COc1ccc(C(=O)N2CCC(OC3CCN(C(=O)[C@H]4CC[C@H](NC[C@]5(c6ccccc6)Oc6cc(F)c(Cl)c(-c7c(C(N)=O)ccc(OC)c7F)c6[C@@H]5C)CC4)CC3)CC2)cc1N1CCC(=O)NC1=O (atropisomer, axis not shown) [Example 2]	=	8.85
COc1ccc(C(N)=O)c(-c2c(Cl)c(F)cc3c2[C@H](C)[C@@](CN[C@H]2CC[C@H](C(=O)NCCOCCOCCOCCNC(=O)COc4cc(-c5scnc5C)ccc4CNC(=O)[C@@H]4C[C@@H](O)CN4C(=O)[C@@H](NC(=O)C4(F)CC4)C(C)(C)C)CC2)(c2ccccc2)O3)c1F (atropisomer, axis not shown) [Example 40]	=	8.33
COc1ccc(OCC(=O)N2CCC(CC3CCN(C(=O)[C@H]4CC[C@H](NC[C@]5(c6ccccc6)Oc6cc(F)c(Cl)c(-c7c(C(N)=O)ccc(OC)c7F)c6[C@@H]5C)CC4)CC3)CC2)cc1N1CCC(=O)NC1=O (atropisomer, axis not shown) [Example 30]	=	8.59

Values from patent US20240382600A1
